// reported log k0 for each item listed
Experiment: Kinetic constant was determined
The reply should be a number, written without any unit.

Look over these answered cases.
According to the records, this compound CCCCCSC[S+]([O-])C[C@H](CO)NC(=O)/C=C/c1c(C)nc(O)nc1O (stereo partly specified) displays log k0 of 1.168

According to the records, this compound CCCCSC[S+]([O-])C[C@H](CO)NC(=O)/C=C/c1c(C)nc(O)nc1O (stereo partly specified) displays log k0 of 0.777

According to the records, this compound CCCSC[S+]([O-])C[C@H](CO)NC(=O)/C=C/c1c(C)nc(O)nc1O (stereo partly specified) displays log k0 of 0.117

According to the records, this compound CCCCSC[S+]([O-])C[C@H](C)NC(=O)/C=C/c1c(C)nc(O)nc1O (stereo partly specified) displays log k0 of 1.29

According to the records, this compound CSC[S+]([O-])C[C@H](C)NC(=O)/C=C/c1c(C)nc(O)nc1O (stereo partly specified) displays log k0 of -0.209

Next:
According to the records, this compound CSC[S+]([O-])C[C@H](CO)NC(=O)/C=C/c1c(C)[nH]c(=O)[nH]c1=O (stereo partly specified) displays log k0 of -0.676

* * *

Tested on: L1210
Assay: In vitro inhibition of cell growth in L1210 murine leukemia cells
Format: functional
Details: Mus musculus, read-out: ID50 (the source's name)
// reported IC50 for each item listed
State the answer as a number, implicitly in nM.

Bench note, L1210: entry CCCCCCCCSC[S+]([O-])C[C@H](CO)NC(=O)/C=C/c1c(C)nc(O)nc1O (some centres undefined) , its IC50 = 100

Next:
Bench note, L1210: entry CC(=O)NCCSC[S+]([O-])C[C@H](CO)NC(=O)/C=C/c1c(C)nc(O)nc1O (some centres undefined) , its IC50 = 1900

Bench note, L1210: entry CCC[S+]([O-])C[C@H](C)NC(=O)/C=C/c1c(C)nc(O)nc1O (some centres undefined) , its IC50 = 450

Bench note, L1210: entry CCCCCSC[S+]([O-])C[C@H](CO)NC(=O)/C=C/c1c(C)nc(O)nc1O (some centres undefined) , its IC50 = 60

* * *

Tested on: Escherichia coli
Test: In vitro inhibition of polyuridylic acid dependent polyphenylalanine synthesis using ribosomes from Escherichia coli
Type: functional
Details: read-out: ED50 (the source's name)
// reported log10 EC50 for each item listed
Hey, these are logged values: log10 of EC50, µM being the unit before logging.

Bench note, Escherichia coli: entry CCCCSC[S+]([O-])C[C@H](C)NC(=O)/C=C/c1c(C)nc(O)nc1O (some centres undefined) , its log10 EC50 = 0.48

Bench note, Escherichia coli: entry CCCSC[S+]([O-])C[C@H](CO)NC(=O)/C=C/c1c(C)nc(O)nc1O (some centres undefined) , its log10 EC50 = 0.48

Bench note, Escherichia coli: entry CC(=O)NCCSC[S+]([O-])C[C@H](CO)NC(=O)/C=C/c1c(C)nc(O)nc1O (some centres undefined) , its log10 EC50 = 1.53

Bench note, Escherichia coli: entry CCCCCCCCCC[S+]([O-])C[C@H](CO)NC(=O)/C=C/c1c(C)nc(O)nc1O (some centres undefined) , its log10 EC50 = 0.26

Bench note, Escherichia coli: entry CCC[S+]([O-])C[C@H](C)NC(=O)/C=C/c1c(C)nc(O)nc1O (some centres undefined) , its log10 EC50 = 1.90

Next:
Bench note, Escherichia coli: entry CCC[S+]([O-])C[C@H](CO)NC(=O)/C=C/c1c(C)nc(O)nc1O (some centres undefined) , its log10 EC50 = 2.15

Bench note, Escherichia coli: entry Cc1nc(O)nc(O)c1/C=C/C(=O)N[C@@H](CO)C[S+]([O-])CSC1CCCCC1 (some centres undefined) , its log10 EC50 = 0.82

Bench note, Escherichia coli: entry CCCCCCC[S+]([O-])C[C@H](CO)NC(=O)/C=C/c1c(C)nc(O)nc1O (some centres undefined) , its log10 EC50 = -0.32

Bench note, Escherichia coli: entry CSC[S+]([O-])C[C@H](C)NC(=O)/C=C/c1c(C)nc(O)nc1O (some centres undefined) , its log10 EC50 = 1.16
